assay: Toxicity liver stage against HepG2, at 10uM; type: cell-based; parameters: test concentration 10 uM, cell line HepG2-A16-CD81EGFP; conditions: human, HepG2-A16-CD81EGFP cells; read-out: INHIBITION
quantityKind: cytotoxicity at 10 µM (%)

{"columns": ["molecule", "result"],
 "data": [
  ["COc1cc(C(=O)N2CCCS2(=O)=O)cc(Cl)c1OC", 2.31],
  ["O=c1[nH]c2cn(-c3cccc(F)c3)c(=O)n2[nH]1", -0.687],
  ["O=C(c1csc(-c2ncccn2)n1)N1CCCC1Cn1cccn1 (stereo unspecified)", 0.533],
  ["COCc1cncc2c1CCN(C(=O)c1ccc(C#N)cc1)C2", -106],
  ["COCCC1(CO)CCCN(C(=O)c2cccnc2OC)C1 (stereo unspecified)", -47.8],
  ["Cc1nn(C)c2nc3c(c(C(=O)/N=c4\\[nH]nc(C(C)C)s4)c12)CCC3", -2.25]
]}

----------
assay: Toxicity liver stage against HepG2, at 10uM; assay type: cell-based; set-up: test concentration 10 uM, cell line HepG2-A16-CD81EGFP; settings: human, HepG2-A16-CD81EGFP cells; read-out: INHIBITION

{"columns": ["compound", "cytotoxicity at 10 µM [%]"],
 "data": [
  ["COC[C@H]1CNC(=O)[C@@H]2CCN(Cc3cccc(C)n3)CC[C@H]12", 16.7],
  ["N#Cc1cnc2ccccc2c1N1CCN(C(=O)C2CCC2)CC1", -2.3],
  ["CCC(C)[C@H](NC(=O)c1cc(F)ccc1-n1cnnn1)C(=O)OC (stereo partly drawn)", 2.53],
  ["Cc1[nH]c(=O)[nH]c(=O)c1CC(=O)N1CCCN(CC2CC2)C(C(C)C)C1 (stereo not drawn)", -160],
  ["N#CCCN(CCC#N)C(=O)c1cccc(N2CCNC2=O)c1", -18.7],
  ["Cc1cc(NC(=O)NCCc2cccnc2)n(C)n1", -3.86],
  ["c1ccc(NCCn2cc(C3CCCNC3)nn2)cc1 (stereo not drawn)", 5.44],
  ["CCOc1ccc(-n2nnc(C(=O)O)c2-c2ccncc2)cc1", -4.14],
  ["O=C(Cn1ccc(=O)cc1)N1C[C@@H]2CC[C@H]1CN(c1ncccn1)C2", 4.52],
  ["CN1CCCC(CNC(=O)N2CCN(Cc3ccon3)CC2)C1 (stereo not drawn)", 15.5],
  ["Cc1oc(C(=O)O)cc1S(=O)(=O)Nc1cccc(-c2nccs2)c1", -1.01],
  ["COc1ccccc1C1(CNCc2ccc([S+](C)[O-])cc2)CC1 (stereo not drawn)", 7.56],
  ["O=C(CSCC1CC1)N1CCCC(c2nccn2Cc2cccnc2)C1 (stereo not drawn)", 3.86],
  ["Cc1cnc(N2C[C@@H]3[C@@H](C(=O)NC(C)C)CCS(=O)(=O)[C@@H]3C2)nc1", -130],
  ["O=C1CNc2ncnc(Nc3cnn(Cc4ccccc4F)c3)c2N1", 2.27],
  ["Cc1cncc(C2CCCN(C(=O)c3cccn3C)C2)n1 (stereo not drawn)", 2.14],
  ["CCN1Cc2cc3c(cc2NCCC1=O)OCO3", -7.44],
  ["CNC(=O)CN1CCC(NC(=O)CC(C)CCc2ccccc2)CC1 (stereo not drawn)", 8.47],
  ["O=C(CCn1cncn1)NCC(c1ccco1)N1CCCCC1 (stereo not drawn)", -2.97],
  ["CN1C(=O)COc2ccc(C(=O)Cn3cnc4ccccc4c3=O)cc21", -0.894],
  ["Cc1ccc(CNC(=O)N(Cc2ccccc2F)C2CC2)cn1", 0.0194],
  ["Cc1c(C(C)NC(=O)Nc2ccc(F)cc2F)cnn1C (stereo not drawn)", -46.2],
  ["CCC(CC)C(=O)N1CCC2(C1)CN(c1ccccc1)C(=O)CN2C (stereo not drawn)", 3.5]
]}
